TEST SUMMARY: Acute toxicity, LD50 on intraperitoneal administration to Swiss mice
SETUP CONDITIONS: mouse, in vivo, ip, F, mean ± 5% confidence interval

COMPOUND	LD50 / mg/kg
CCCCCC(O)/C=C/n1ccnc1 (racemic)	164

----------
TEST SUMMARY: Acute toxicity, LD50 on intraperitoneal administration to Wistar rats
SETUP CONDITIONS: rat, in vivo, ip, F, mean ± 5% confidence interval

MOLECULE	LD50 (mg/kg)
CCCCCC(O)/C=C/n1ccnc1 (racemic)	250

----------
EXPERIMENTAL SYSTEM: platelet thromboxane synthetase (Homo sapiens, UniProt P24557)
Construct: endogenous in cells
Sequence (P24557 whole entry): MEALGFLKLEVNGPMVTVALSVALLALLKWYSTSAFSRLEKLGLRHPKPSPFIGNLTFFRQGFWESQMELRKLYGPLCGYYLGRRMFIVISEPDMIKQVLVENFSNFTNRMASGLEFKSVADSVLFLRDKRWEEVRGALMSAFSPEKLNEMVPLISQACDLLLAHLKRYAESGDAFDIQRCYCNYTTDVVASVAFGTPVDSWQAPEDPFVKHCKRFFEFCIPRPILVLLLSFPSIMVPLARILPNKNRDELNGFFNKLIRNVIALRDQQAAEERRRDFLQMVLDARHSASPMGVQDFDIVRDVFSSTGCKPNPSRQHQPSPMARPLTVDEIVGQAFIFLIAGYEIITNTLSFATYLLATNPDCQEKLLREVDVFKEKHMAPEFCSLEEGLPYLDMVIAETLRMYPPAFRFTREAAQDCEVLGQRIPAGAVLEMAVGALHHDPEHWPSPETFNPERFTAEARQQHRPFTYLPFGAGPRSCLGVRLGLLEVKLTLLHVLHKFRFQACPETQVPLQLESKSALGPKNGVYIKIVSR
TEST SUMMARY: Inhibition of platelet thromboxane synthetase (14C-arachidonic acid incubated with washed platelet suspension, TLC)
SETUP CONDITIONS: platelet suspension, 14C-arachidonic acid, 10 min, 37° C., pH 7.5; read-out: 50% inhibitory concentration (IC50)
pIC50: −log10 of the molar value. Counter-ions that a name gives are not always drawn.
pIC50 values for the compounds below.

COMPOUND	pIC50
CCCCCC(/C=C/n1ccnc1)OC(=O)c1ccccc1 (centres unmarked)	5.82
CCCCCC(O)/C=C/n1ccnc1 (racemic)	5.60
CCCCCC(/C=C/n1ccnc1)OC(C)=O (centres unmarked)	5.82
CCCCCC(/C=C/n1ccnc1)OC(=O)c1cccnc1 (centres unmarked) [Compound B, dihydrochloride]	6.00
CCCCCC(/C=C/n1ccnc1)OCc1ccccc1 (centres unmarked)	6.00
CCCCCC(/C=C/n1ccnc1)OCc1ccccn1 (centres unmarked)	5.82
CCCCCC(=O)OC(/C=C/n1ccnc1)CCCCC (centres unmarked)	5.82
c1c[nH]cn1	4.30

Hey, just so you know, these numbers are from patent US4407812A.
